Assay: HILIC, Waters Atlantis Premier BEH Z-HILIC, 100 × 2.1 mm, 1.7 µm, 40 °C, 0.15 mL/min, estimated dead time 1.5 min; A: water + 20 mM ammonium carbonate + 5 µM medronic acid; B: 10% water + 90% acetonitrile + 2 mM ammonium carbonate + 0.5 µM medronic acid; gradient (min/%B) 0/95 18/60 18.1/20 21.5/20 22/95 23.5/95 25.5/95
Conditions: stereoisomer not certain
So I've got a bunch of molecules here, and I need their LC retention time values.
Reply with just the number (in min).

Q: Consider the molecule shown here: Cc1cc2nc3c(=O)[nH]c(=O)nc-3n(CC(O)C(O)C(O)COP(=O)(O)OP(=O)(O)OCC3OC(n4cnc5c(N)ncnc54)C(O)C3O)c2cc1C (stereo not given) What is its recorded LC retention time?
A: 7.66

Q: Follow-up item: C[N+](C)(C)CC(O)CC(=O)[O-] (stereo not given)
A: 10.4

Q: Follow-up item: NC(CCC(=O)O)C(=O)O (stereo not given)
A: 10.3

Q: Follow-up item: Nc1ncnc2c1ncn2C1OC(CO)C(O)C1O (stereo not given)
A: 4.12

Q: Follow-up item: NC(=O)CCC(N)C(=O)O (stereo not given)
A: 11

Q: Follow-up item: O=C(O)CCC(=O)O
A: 10.1

Q: Follow-up item: O=C(O)CC(C(=O)O)C(O)C(=O)O (stereo not given)
A: 14.6

Q: Follow-up item: Nc1ncnc2c1ncn2C1OC(COP(=O)(O)OP(=O)(O)O)C(O)C1O (stereo not given)
A: 12.2

Q: Follow-up item: O=C(CO)COP(=O)(O)O [Triose phosphate]
A: 10.8

Q: Follow-up item: Nc1nc2c(ncn2C2OC(COP(=O)(O)OP(=O)(O)OP(=O)(O)O)C(O)C2O)c(=O)[nH]1 (stereo not given)
A: 17.2

* * *

Test: HILIC, Waters Atlantis Premier BEH Z-HILIC, 100 × 2.1 mm, 1.7 µm, 40 °C, 0.15 mL/min, estimated dead time 1.5 min; A: water + 20 mM ammonium carbonate + 5 µM medronic acid; B: 10% water + 90% acetonitrile + 2 mM ammonium carbonate + 0.5 µM medronic acid; gradient (min/%B) 0/95 18/60 18.1/20 21.5/20 22/95 23.5/95 25.5/95
Conditions: stereoisomer not certain
Strictly below 10 min in LC retention time: true (1). Otherwise: false (0).

Q: Hello, I'm reviewing records and need to know if LC retention time of NC(=O)c1ccc[n+](C2OC(COP(=O)(O)OP(=O)(O)OCC3OC(n4cnc5c(N)ncnc54)C(O)C3O)C(O)C2O)c1 (stereo not drawn) is below 10 min. Could you check?
A: false (0)

Q: Follow-up item: NC(=O)c1ccc[n+](C2OC(COP(=O)(O)OP(=O)(O)OCC3OC(n4cnc5c(N)ncnc54)C(OP(=O)(O)O)C3O)C(O)C2O)c1 (stereo not drawn)
A: false (0)

Q: Follow-up item: Nc1ncnc2c1ncn2C1OC(COP(=O)(O)OP(=O)(O)OP(=O)(O)O)C(O)C1O (stereo not drawn)
A: false (0)

Q: Follow-up item: O=C(O)CCCCC1SCC2NC(=O)NC21 (stereo not drawn)
A: true (1)

Q: Follow-up item: CC(O)C(=O)O (stereo not drawn)
A: true (1)

Q: Follow-up item: O=P(O)(O)OCC1OC(O)(COP(=O)(O)O)C(O)C1O (stereo not drawn) [Fructose-1,6-bisphosphate]
A: false (0)

Q: Follow-up item: CC(C)CC(N)C(=O)O (stereo not drawn)
A: true (1)

Q: Follow-up item: O=P(O)(O)OCC1OC(O)C(O)C(O)C1O (stereo not drawn) [Glucose-6-phosphate]
A: false (0)
